# Run Description: MTS cytotoxicity assay, BJ
# Type: cell-based
# Settings: human, BJ cells (non-tumour skin fibroblasts); MTS assay, 72-h incubation, mean ± SD of 3 independent experiments; read-out: IC50 cytotoxic activity BJ
Value Kind: IC50 at 72 h

Solved cases below.
[[record]]
compound = "C[C@]12CC[C@@H]3c4ccc(O)cc4CC[C@H]3[C@@H]1CC[C@@]2(O)c1cn(Cc2cc(Cn3cc([C@]4(O)CC[C@H]5[C@@H]6CCc7cc(O)ccc7[C@H]6CC[C@@]54C)nn3)cc(OCCO)c2)nn1"
experimental_result = "> 50 µM"

[[record]]
compound = "COc1cc(Cn2cc([C@]3(O)CC[C@H]4[C@@H]5CCc6cc(O)ccc6[C@H]5CC[C@@]43C)nn2)cc(Cn2cc([C@]3(O)CC[C@H]4[C@@H]5CCc6cc(O)ccc6[C@H]5CC[C@@]43C)nn2)c1"
experimental_result = "> 50 µM"


**Query** Record request: IC50 at 72 h value, item COc1cc2c(cc1O)CC[C@@H]1[C@@H]2CC[C@]2(C)[C@@H](O)CC[C@@H]12 [ME, 2-methoxyestradiol, reference compound]
**Result** > 50 µM

**Query** GET /values?readout=IC50 at 72 h&item= C#C[C@]1(O)CC[C@H]2[C@@H]3CCc4cc(O)ccc4[C@H]3CC[C@@]21C [EE, 17α-ethinylestradiol, reference compound]
**Result** > 50 µM

**Query** So what's the measured IC50 at 72 h for this one? C[C@]12CC[C@@H]3c4ccc(O)cc4CC[C@H]3[C@@H]1CC[C@@]2(O)c1cn(Cc2cccc(Cn3cc([C@]4(O)CC[C@H]5[C@@H]6CCc7cc(O)ccc7[C@H]6CC[C@@]54C)nn3)n2)nn1 [ED, reference compound]
**Result** > 50 µM
